Test system: CD2F1 mice, L1210 leukemia ip, survival T/C
assayDetails: NCI In Vivo Anticancer Drug Screen. Data for tumor model L1210 Leukemia (intraperitoneal) in CD2F1 (CDF1) mice
conditionParameters: endpoint: mean survival time; dose: 200.0 mg/kg/injection; schedule: Q04DX002 (ip); vehicle: saline with Tween-80; higher = longer survival
Inconclusive results and toxic doses are left out.
measuredQuantity: T/C

Answered cases to consult:
INSERT INTO measurements (compound, measurement) VALUES
  ('O=C=NC(=O)c1ccccc1', '100 % of control'),
  ('COc1ccc(-n2cnc3c(=O)[nH]cnc32)cc1', '90 % of control'),
  ('CCCCCCCCCCCCSC(=S)S', '91 % of control'),
  ('O=[N+]([O-])c1ccc(OC(=S)c2ccccc2)cc1', '96 % of control'),
  ('O=C(COc1ccc(F)cc1F)OC(=O)Cc1ccc(Br)cc1', '105 % of control');

# return recorded T/C for input `O=C(Nc1ccc([N+](=O)[O-])cc1)OCc1ccccc1`
108 % of control

# return recorded T/C for input CCCCCCCCCCCCCC1CCCC(C)N1 (centres undefined)
101 % of control

# return recorded T/C for input `Cc1cc(S(=O)(=O)F)cc(Cl)c1OC(=S)N(C)C`
96 % of control

# return recorded T/C for input CC(C)CC(CCl)Cc1nc2ccccc2[nH]1 (centres undefined)
97 % of control

# return recorded T/C for input `Cc1nc(N)nc2c1CCC(=O)N2C`
97 % of control

# return recorded T/C for input `CCCCOP(=O)(OC)OCCCC`
102 % of control

# return recorded T/C for input `CC(C)NC(=S)NC1=CCNN1c1ccccc1`
88 % of control

# return recorded T/C for input O=C1OC2C(Cl)CC(Cl)CC2C=C1c1cccc([N+](=O)[O-])c1 (centres undefined)
90 % of control

# return recorded T/C for input CC(Sc1ccccc1)C(=O)OC1C=CCCC1 (centres undefined)
106 % of control

# return recorded T/C for input `C[N+](C)(C)c1cccc(S)c1`
112 % of control

# return recorded T/C for input `C#CC1(OC(=O)Nc2ccccc2)CCCCC1`
92 % of control

# return recorded T/C for input `O=C(Nc1ccccn1)OCc1ccccc1`
101 % of control

* * *

System: CD2F1 mice, L1210 leukemia ip, survival T/C
assayDetails: NCI In Vivo Anticancer Drug Screen. Data for tumor model L1210 Leukemia (intraperitoneal) in CD2F1 (CDF1) mice
conditionParameters: endpoint: mean survival time; dose: 400.0 mg/kg/injection; schedule: Q01DX009 (ip); vehicle: saline with Tween-80; higher = longer survival
Procedure: The antitumor activity of compounds was measured in mice bearing transplantable tumors. Survival or tumor size were measured and the results are expressed as the measurement made in the treated group (T) divided by the measurement made in the vehicle treated control group (C). The tumor model used in this assay is L1210 Leukemia (intraperitoneal) in CD2F1 (CDF1) mice
Toxic doses and inconclusive results are not listed.
measuredQuantity: T/C

Answered cases to consult:
INSERT INTO results (compound, measurement) VALUES
  ('COc1cc(/C=N/Nc2ccc([N+](=O)[O-])cc2)cc(OC)c1OC', '98 % of control'),
  ('c1csc(CCc2nc3ccccc3o2)c1', '93 % of control'),
  ('O=C(c1ccc(Cl)cc1)C1CC(Br)C(Br)CC1C(=O)c1ccc(Cl)cc1 (centres undefined)', '100 % of control');

# return recorded T/C for input `O=Cc1cc2c(cc1Br)OCO2`
92 % of control

# return recorded T/C for input `CCOC(=O)c1cc(CO)nc2c(Cl)cc(Cl)cc12`
90 % of control

# return recorded T/C for input `CCOC(=O)NNC(=O)Nc1ccccc1F`
94 % of control

# return recorded T/C for input `O=C1NC(=O)C(C2CC2)(C2CC2)N1`
96 % of control

# return recorded T/C for input CC(=O)NC(C=O)C(O)C1OC(c2ccccc2)OCC1O (centres undefined)
92 % of control

# return recorded T/C for input `Cc1c(N)nc(I)c2ccccc12`
87 % of control

# return recorded T/C for input `O=C(CC(=O)Nc1ccc([N+](=O)[O-])cc1)Nc1ccc([N+](=O)[O-])cc1`
89 % of control

# return recorded T/C for input `Cc1ccc(NS(=O)(=O)c2ccccc2)c([N+](=O)[O-])c1`
100 % of control

# return recorded T/C for input O=C1OC2C(Cl)CC(Cl)CC2C=C1c1cccc([N+](=O)[O-])c1 (centres undefined)
105 % of control

# return recorded T/C for input `Cc1ccc(O)c2ncccc12`
103 % of control

# return recorded T/C for input `CC(C)(c1ccc(O)cc1)c1ccc(O)cc1`
100 % of control

Recorded values, source PubChem BioAssay AID256.
